# Tested on: Klebsiella pneumoniae
# protocol-details: Antibacterial activity against Klebsiella pneumoniae ATCC 10031
# Type: functional
Measured MIC values are reported for all entries that follow.
assay-endpoint: MIC (µg/mL)

- compound: "CC(=O)c1c(OCCCNCCN(C)C)c2c(c3c1OC(C)(CCC=C(C)C)C=C3)OC(C)(CCC=C(C)C)C=C2 (stereo not drawn)"
  target-of-assay: "Klebsiella pneumoniae"
  relational-operator: "="
  reported-value: 4
- compound: "CCCCN(CCCC)CCCNCCCOc1c2c(c3c(c1C(C)=O)OC(C)(CCC=C(C)C)C=C3)OC(C)(CCC=C(C)C)C=C2 (stereo not drawn)"
  target-of-assay: "Klebsiella pneumoniae"
  relational-operator: "="
  reported-value: 8
- compound: "CC(=O)c1c(OCCCNCCCN2CCCC2)c2c(c3c1OC(C)(CCC=C(C)C)C=C3)OC(C)(CCC=C(C)C)C=C2 (stereo not drawn)"
  target-of-assay: "Klebsiella pneumoniae"
  relational-operator: "="
  reported-value: 8
- compound: "CC(=O)c1ccc2c(c1OCCCN1CCOCC1)C=CC(C)(CCC=C(C)C)O2 (stereo not drawn)"
  target-of-assay: "Klebsiella pneumoniae"
  relational-operator: ">"
  reported-value: 128
- compound: "CC(=O)c1c(OCCCN(C)C)c2c(c3c1OC(C)(CCC=C(C)C)C=C3)OC(C)(CCC=C(C)C)C=C2 (stereo not drawn)"
  target-of-assay: "Klebsiella pneumoniae"
  relational-operator: ">"
  reported-value: 128
- compound: "CCN(CC)C(=O)COc1c(C(C)=O)ccc2c1C=CC(C)(CCC=C(C)C)O2 (stereo not drawn)"
  target-of-assay: "Klebsiella pneumoniae"
  relational-operator: ">"
  reported-value: 128
- compound: "CNCCCOc1ccc(/C=C/C(=O)c2ccc3c(c2OC)C=CC(C)(CCC=C(C)C)O3)cc1 (stereo not drawn)"
  target-of-assay: "Klebsiella pneumoniae"
  relational-operator: "="
  reported-value: 32
- compound: "COc1c(C(=O)/C=C/c2ccc(OCCCN(C)CCCN(C)C)cc2)ccc2c1C=CC(C)(CCC=C(C)C)O2 (stereo not drawn)"
  target-of-assay: "Klebsiella pneumoniae"
  relational-operator: "="
  reported-value: 4

Value source: ChEMBL document CHEMBL5614413
